# TGT: cSrc (Homo sapiens)
# Construct: purchased BPS Bioscience
# Sequence (P12931 whole entry): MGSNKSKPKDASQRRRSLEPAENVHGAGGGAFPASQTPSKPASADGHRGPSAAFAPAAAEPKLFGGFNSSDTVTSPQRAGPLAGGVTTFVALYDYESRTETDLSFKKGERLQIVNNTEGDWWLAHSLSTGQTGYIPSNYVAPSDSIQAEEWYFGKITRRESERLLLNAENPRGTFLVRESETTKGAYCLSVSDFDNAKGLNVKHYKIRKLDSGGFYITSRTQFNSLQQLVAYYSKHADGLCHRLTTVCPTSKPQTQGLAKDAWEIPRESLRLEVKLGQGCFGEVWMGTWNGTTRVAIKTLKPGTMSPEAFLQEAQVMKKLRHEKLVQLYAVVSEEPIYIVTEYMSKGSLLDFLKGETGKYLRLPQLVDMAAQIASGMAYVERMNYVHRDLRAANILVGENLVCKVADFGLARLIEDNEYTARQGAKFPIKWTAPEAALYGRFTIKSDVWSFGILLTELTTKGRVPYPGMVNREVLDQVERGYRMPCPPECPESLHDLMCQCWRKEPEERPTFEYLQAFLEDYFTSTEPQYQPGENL
# ASSAY_COMMENT: Kinase inhibition assay (Kinase-Glo Plus), cSrc
# Assay type: biochemical
# EXPERIMENTAL_CONTEXT: read-out: % inhibition; 10 μM compound
OBSERVABLE: inhibition at 10 µM (%)

COMPOUND	TGT	QUANTITY_UNIT	inhibition at 10 µM
CC(C(=O)SC1CCCCC1)c1ccc(-c2ccccc2)c(F)c1 (stereo not drawn)	cSrc (Homo sapiens)	%	3
CC1=C(CC(=O)Sc2ccccc2)c2cc(F)ccc2C1=Cc1ccc([S+](C)[O-])cc1 (stereo not drawn)	cSrc (Homo sapiens)	%	4
COc1ccc2c(c1)c(CC(=O)Sc1ccccc1)c(C)n2C(=O)c1ccc(Cl)cc1	cSrc (Homo sapiens)	%	1
CC(C(=O)SC1CCCCC1)c1cccc(C(=O)c2ccccc2)c1 (stereo not drawn)	cSrc (Homo sapiens)	%	4

(P) COc1ccc2c(c1)c(CC(=O)SC1CCCCC1)c(C)n2C(=O)c1ccc(Cl)cc1
(Q) O=C(Cc1ccccc1Nc1c(Cl)cccc1Cl)Sc1ccccc1
Between these two entries, P and Q , state which has the higher inhibition at 10 µM. Field: selected label. Fill in the label of the entry you choose.
Q

###

Target chain: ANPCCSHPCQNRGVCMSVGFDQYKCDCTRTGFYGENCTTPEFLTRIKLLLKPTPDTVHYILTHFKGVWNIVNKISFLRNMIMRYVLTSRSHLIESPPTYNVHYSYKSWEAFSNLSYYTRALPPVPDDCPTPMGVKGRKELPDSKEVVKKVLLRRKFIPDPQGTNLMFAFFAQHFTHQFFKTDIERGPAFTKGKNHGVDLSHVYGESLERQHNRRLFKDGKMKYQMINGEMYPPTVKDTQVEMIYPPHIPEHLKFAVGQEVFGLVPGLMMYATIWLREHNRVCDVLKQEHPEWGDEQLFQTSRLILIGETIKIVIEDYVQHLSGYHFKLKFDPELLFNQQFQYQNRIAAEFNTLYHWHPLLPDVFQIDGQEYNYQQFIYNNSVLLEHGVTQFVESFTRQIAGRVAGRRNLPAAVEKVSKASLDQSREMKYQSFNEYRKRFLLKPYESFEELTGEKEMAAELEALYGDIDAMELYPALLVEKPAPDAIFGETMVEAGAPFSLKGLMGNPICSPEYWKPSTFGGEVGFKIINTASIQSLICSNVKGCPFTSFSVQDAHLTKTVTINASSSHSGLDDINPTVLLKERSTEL
OBSERVABLE: IC50 (nM)

COMPOUND	QUANTITY_UNIT	IC50
CC(C(=O)SC1CCCCC1)c1ccc(-c2ccccc2)c(F)c1 (stereo not drawn)	nM	690

(P) COc1ccc2c(c1)c(CC(=O)Sc1ccccc1)c(C)n2C(=O)c1ccc(Cl)cc1
(Q) CC1=C(CC(=O)SC2CCCCC2)c2cc(F)ccc2C1=Cc1ccc([S+](C)[O-])cc1 (stereo not drawn)
For this pair, P and Q , which shows a numerically higher IC50? Your choice should be expressed through its label.
Q
